Kindly supply the reported Papp at 18 hours, 50 µM values for the records listed here.
- METHOD NOTES: PAMPA (parallel artificial membrane permeability assay)
- Assay type: in vitro ADME
- RUN PARAMETERS: PAMPA; membrane permeation rate (Pe); 50 mM MOPSO buffer pH 6.5 with 5.0% glycocholic acid, 37° C., 18 hours; read-out: iPAMPA Pe
Starred links: 1 amine or outer side, 2 acyl side, 3 side chain; linkers in the order of their positions; H or OH if unused. Positions of bridges follow the written chain, without caps; N, C: chain ends. Non-standard residues stand in square brackets, D forms with d. Residues, ends and D or L forms follow the SMILES beside them. *: point of attachment. Phe(4-CF3) = N[C@@H](Cc1ccc(C(F)(F)F)cc1)C(=O)O; NMeF = CN[C@@H](Cc1ccccc1)C(=O)O; NMeβAla = CN(CCC(=O)[*:2])[*:1]; NMeL = CN[C@@H](CC(C)C)C(=O)O; NMeA = CN[C@@H](C)C(=O)O; Piperidide = C1CCN(*)CC1; β3hA = C[C@H](N)CC(=O)O; Sar = CNCC(=O)O
Just the number please, in ×10⁻⁶ cm/s, no unit attached.

Papp at 18 hours, 50 µM for CC[C@H](C)[C@@H]1NC(=O)[C@H](CC(C)C)N(C)C(=O)[C@H](C)NC(=O)CN(C)C(=O)[C@H](Cc2ccc(C(F)(F)F)cc2)NC(=O)[C@H]([C@@H](C)O)NC(=O)[C@H](CC(C)C)N(C)C(=O)CCN(C)C(=O)C[C@H](C)NC(=O)[C@H](CC(C)C)N(C)C(=O)[C@H](CC(C)C)N(C)C1=O [DP-805] (cyclo(A[NMeL]I[NMeL][NMeL][β3hA][NMeβAla][NMeL]T[Phe(4-CF3)][Sar])) is 41

Papp at 18 hours, 50 µM for CC(C)C[C@H]1C(=O)N(C)[C@@H](Cc2ccccc2)C(=O)NCC(=O)N(C)[C@@H](Cc2ccccc2)C(=O)N(C)[C@@H](C)C(=O)N[C@@H]([C@@H](C)O)C(=O)N[C@H](C(=O)N(C)[C@@H](Cc2ccccc2)C(=O)N(C)[C@@H](Cc2ccccc2)C(=O)N[C@@H](C)C(=O)N2CCCCC2)CC(=O)N(C)CC(=O)N[C@@H](C(C)C)C(=O)N1C [DP-314] ([Sar]V[NMeL][NMeF]G[NMeF][NMeA]TD[NMeF][NMeF]A-Piperidide; lactam N-9) is 49

---

- METHOD NOTES: Metabolic stability in human hepatic microsome
- Type: in vitro ADME
- RUN PARAMETERS: microsomes, pH 7.4; human hepatic microsome, NADPH(+); read-out: CL NADPH(+)
Starred links: 1 amine or outer side, 2 acyl side, 3 side chain; linkers in the order of their positions; H or OH if unused. Positions of bridges follow the written chain, without caps; N, C: chain ends. Non-standard residues stand in square brackets, D forms with d. Residues, ends and D or L forms follow the SMILES beside them. *: point of attachment. NMeF = CN[C@@H](Cc1ccccc1)C(=O)O; NMeβAla = CN(CCC(=O)[*:2])[*:1]; NMeL = CN[C@@H](CC(C)C)C(=O)O; NMeV = CN[C@H](C(=O)O)C(C)C; NMeA = CN[C@@H](C)C(=O)O; Piperidide = C1CCN(*)CC1; dNMeA = CN[C@H](C)C(=O)O; Sar = CNCC(=O)O
Decide using microsomal CLint at 1 uM alone. Strictly below 40 µL/min/mg: T. Equal to or above 40 µL/min/mg: F.

Input line: Strictly below 40 µL/min/mg: is that where microsomal CLint at 1 uM of CC[C@H](C)[C@@H]1NC(=O)[C@H](Cc2ccccc2)N(C)C(=O)[C@H]([C@@H](C)O)NC(=O)[C@H](C(C)C)N(C)C(=O)[C@H](CC(C)C)NC(=O)[C@H](CC(C)C)N(C)C(=O)CCN(C)C(=O)C[C@@H](C(=O)N2CCCCC2)NC(=O)[C@H](C)NC(=O)[C@H](C)N(C)C(=O)[C@H](Cc2ccccc2)NC1=O [DP-238] ([NMeβAla][NMeL]L[NMeV]T[NMeF]IF[NMeA]AD-Piperidide; lactam N-11) sits?
Output line: F

Input line: Strictly below 40 µL/min/mg: is that where microsomal CLint at 1 uM of CC(C)C[C@@H]1NC(=O)C[C@@H](C(=O)N2CCCCC2)NC(=O)[C@H]([C@@H](C)O)NC(=O)[C@H](C(C)C)N(C)C(=O)CN(C)C(=O)[C@H](CC(C)C)N(C)C(=O)[C@H](Cc2ccccc2)NC(=O)[C@H](Cc2ccccc2)N(C)C(=O)[C@@H](C(C)C)NC(=O)[C@H](CC(C)C)N(C)C(=O)[C@H](C)N(C)C1=O [DP-615] (L[NMeA][NMeL][dV][NMeF]F[NMeL][Sar][NMeV]TD-Piperidide; lactam N-11) sits?
Output line: F

Input line: Strictly below 40 µL/min/mg: is that where microsomal CLint at 1 uM of CC(C)C[C@@H]1NC(=O)[C@H](C(C)C)N(C)C(=O)[C@H](C)N(C)C(=O)[C@H](Cc2ccccc2)N(C)C(=O)[C@H](Cc2ccccc2)NC(=O)[C@@H](C)N(C)C(=O)C[C@@H](C(=O)N2CCCCC2)NC(=O)[C@H]([C@@H](C)O)NC(=O)[C@H](C)N(C)C(=O)[C@H](C)N(C)C(=O)[C@H](C)NC(=O)CN(C)C1=O [DP-467] ([dNMeA]F[NMeF][NMeA][NMeV]L[Sar]A[NMeA][NMeA]TD-Piperidide; lactam N-12) sits?
Output line: T

Input line: Strictly below 40 µL/min/mg: is that where microsomal CLint at 1 uM of CC(C)C[C@H]1C(=O)N(C)[C@@H](C(C)C)C(=O)N[C@@H](C(C)C)C(=O)N(C)CC(=O)N(C)[C@@H](C)C(=O)N[C@@H]([C@@H](C)O)C(=O)N(C)[C@@H](C)C(=O)N[C@H](C(=O)N2CCCCC2)CC(=O)N(C)[C@@H](C)C(=O)N(C)[C@@H](C)C(=O)N(C)[C@@H](Cc2ccccc2)C(=O)N[C@@H](C)C(=O)N1C [DP-410] ([NMeA][NMeA][NMeF]A[NMeL][NMeV]V[Sar][NMeA]T[NMeA]D-Piperidide; lactam N-12) sits?
Output line: T
